assay: recombinant UMI read abundance after kanamycin selection (control-corrected) (log10(CPM+1)); higher = more efficient recombination; extreme values may be limits of the assay; sequences stand for … in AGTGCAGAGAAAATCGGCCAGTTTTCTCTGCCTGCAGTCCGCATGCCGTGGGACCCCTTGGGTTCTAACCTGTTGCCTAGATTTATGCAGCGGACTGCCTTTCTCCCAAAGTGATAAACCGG…AGGTTGGTTTCACT; site = the 11-nt donor
MEASUREMENT_LABEL: recombinant UMI read abundance (log10)
A bare number is all that is needed in reply.

{"SEQUENCE_INPUT": "TACCCGCCATGGACCGGTTTTCCCGGTAATCCGTATTTGCG (site TACCCGCCTCG)", "MEASUREMENT_LABEL": "recombinant UMI read abundance (log10)", "RECORDED_VALUE": 0.26}
{"SEQUENCE_INPUT": "GGCCCCGCATGGACCGGTTTTCCCGGTAATCCGTATTTGAT (site GGCCCCGCTAT)", "MEASUREMENT_LABEL": "recombinant UMI read abundance (log10)", "RECORDED_VALUE": 1.24}
{"SEQUENCE_INPUT": "CTATGCTCATGGACCGGTTTTCCCGGTAATCCGTATTTGAA (site CTATGCTCTTT)", "MEASUREMENT_LABEL": "recombinant UMI read abundance (log10)", "RECORDED_VALUE": 2.25}
{"SEQUENCE_INPUT": "AATACTTCATGGACCGGTTTTCCCGGTAATCCGTATTTGGA (site AATACTTCTTC)", "MEASUREMENT_LABEL": "recombinant UMI read abundance (log10)", "RECORDED_VALUE": 1.81}
{"SEQUENCE_INPUT": "GACACAGCATGGACCGGTTTTCCCGGTAATCCGTATTTGAC (site GACACAGCTGT)", "MEASUREMENT_LABEL": "recombinant UMI read abundance (log10)", "RECORDED_VALUE": 2.44}

query: Field request: recombinant UMI read abundance (log10) | item: AAGGATCCATGGACCGGTTTTCCCGGTAATCCGTATTTGTT (site AAGGATCCTAA)
result: 1.19

query: Need recombinant UMI read abundance (log10) of GAGAAAACATGGACCGGTTTTCCCGGTAATCCGTATTTGCT (site GGGAAAACTAG) , thanks.
result: 0

query: Field request: recombinant UMI read abundance (log10) | item: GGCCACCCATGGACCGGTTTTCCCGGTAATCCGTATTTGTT (site AGCCACCCTAA)
result: 0.0306

----------
experiment: recombinant barcode read abundance after kanamycin selection (control-corrected) (log10(CPM+1)); higher = more efficient recombination; sequences stand for … in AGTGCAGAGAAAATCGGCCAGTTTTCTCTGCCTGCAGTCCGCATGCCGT…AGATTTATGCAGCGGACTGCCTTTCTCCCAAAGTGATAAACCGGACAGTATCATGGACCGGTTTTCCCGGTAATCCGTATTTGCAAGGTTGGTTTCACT; site = the 11-nt target
MEASUREMENT_LABEL: recombinant barcode read abundance (log10)
Answer as a number with no unit attached.

Answered cases to consult:
{"SEQUENCE_INPUT": "TGTGCAACTTGGGTTCTAACCTGTTGCTG (site TGTGCAACTCA)", "RECORDED_VALUE": 0.284}
{"SEQUENCE_INPUT": "GTTGGCCCTTGGGTTCTAACCTGTTGCCT (site GATGGCCCTAG)", "RECORDED_VALUE": 0.579}
{"SEQUENCE_INPUT": "CTTACCGCTTGGGTTCTAACCTGTTGCCT (site CTTACTGCTAG)", "RECORDED_VALUE": 0.273}
{"SEQUENCE_INPUT": "ACATACCCTTGGGTTCTAACCTGTTGCTG (site CTTCGAACTAT)", "RECORDED_VALUE": 0.142}
{"SEQUENCE_INPUT": "GCGCGCCCTTGGGTTCTAACCTGTTGCGG (site GCGCGCCCTCC)", "RECORDED_VALUE": 1.63}

query: Which recombinant barcode read abundance (log10) reading was recorded for the sequence CTCTATCCTTGGGTTCTAACCTGTTGCGT (site CTCTACCCTAC) ?
result: 0.218

query: Given the sequence GTAGACCCTTGGGTTCTAACCTGTTGCCT (site CTAGACCCTAG) , what is its reported recombinant barcode read abundance (log10)?
result: 1.16

query: I am curious: what recombinant barcode read abundance (log10) value has been reported for CCGCACACTTGGGTTCTAACCTGTTGCCT (site TCGCACACTAG) ?
result: 0.305

query: Query: recombinant barcode read abundance (log10); subject: AGAACACCTTGGGTTCTAACCTGTTGCTT (site GAGGAGTCTCG)
result: 0.13
